System Under Test: GPR40 (Homo sapiens, UniProt O14842)
Construct: expressed in transfected cells; host or cells: CHO-K1
Sequence (O14842 whole entry): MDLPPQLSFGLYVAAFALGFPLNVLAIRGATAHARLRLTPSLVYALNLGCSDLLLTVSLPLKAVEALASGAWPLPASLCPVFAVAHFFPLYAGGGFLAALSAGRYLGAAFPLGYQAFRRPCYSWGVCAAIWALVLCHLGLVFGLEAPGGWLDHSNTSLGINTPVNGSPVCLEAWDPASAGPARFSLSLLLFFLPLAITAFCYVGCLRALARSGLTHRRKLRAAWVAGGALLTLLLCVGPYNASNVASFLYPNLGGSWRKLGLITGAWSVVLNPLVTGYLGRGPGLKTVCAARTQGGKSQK
Experiment Description: GPR40 agonist activity, FLIPR calcium assay in CHO-K1/GPR40 cells
Assay type: cell-based
Condition Context: GPR40 agonist activity range (EC50), CHO-K1/GPR40 cells; read-out: GPR40 activity
Give EC50 for every item shown.

For orientation, consider the following solved cases.
Compound | EC50
CC(C)(C)C(=O)Nc1cc(COc2ccc3c(c2)OC[C@H]3CC(=O)O)c2c(c1)OCO2 | > 100 nM
CC#CC(CC(=O)O)c1ccc(OCc2cccc3c2OC(F)(F)O3)cc1 (stereo not shown) | 10 to 100 nM
O=C(O)C(F)(F)C1COc2cc(OCc3cc(Cl)cc4c3OCO4)ccc21 (stereo not shown) | > 100 nM

Give EC50 for each listed item.
1. O=C(O)CC1COc2cc(OCc3ccc(Cl)c4c3OC(F)(F)O4)ccc21 (stereo not shown)
2. O=C(O)CC1COc2cc(OCc3cccc4c3OCCO4)ccc21 (stereo not shown)
3. O=C(O)C[C@@H]1COc2cc(OCc3cc(C(F)(F)F)cc4c3OC(F)(F)O4)ccc21

1. > 100 nM
2. > 100 nM
3. 10 to 100 nM

====

System Under Test: GPR40 (Homo sapiens, UniProt O14842)
Construct: expressed in transfected cells; host or cells: CHO-K1
Experiment Description: GPR40 agonist activity, FLIPR calcium assay in CHO-K1/GPR40 cells
Format: cell-based
Condition Context: GPR40 agonist activity range (EC50), CHO-K1/GPR40 cells; read-out: GPR40 activity
Description: Inoculate CHO-K1/GPR40 cells in 384-well plates at a density of 10,000 cells/well. Cells were incubated at 37° C. for 24 hours in a 5% CO2 incubator. […] For the determination, different concentrations of drug ([…]) were added to the wells and the fluorescence values were read. The fluorescence excitation wavelength was 494 nm and emission wavelength was 516 nm. […]
Readout Label: EC50

Compound | Readout Label | Readout Value
O=C(O)C(F)C1COc2cc(OCc3cc(F)cc4c3OCO4)ccc21 (stereo not shown) | EC50 | 10 to 100 nM
CN(C)c1ccc2c(c1COc1ccc3c(c1)OC[C@H]3CC(=O)O)OCO2 | EC50 | > 100 nM
Cc1cc(OCCCS(C)(=O)=O)cc(C)c1-c1cc(COc2ccc3c(c2)OC[C@H]3CC(=O)O)c2c(c1)OCO2 | EC50 | 10 to 100 nM

Alright, here's another compound for you.
Consider the compound shown here: `O=C(O)C[C@@H]1COc2cc(OCc3cc(I)cc4c3OCO4)ccc21` What is its recorded EC50?
10 to 100 nM
